System: A549
Assay Notes: cells
Condition Info: Homo sapiens, A549, 72 h
Description: Antiproliferative activity against human A549 cells after 72 hrs by MTT assay
Recorded Metric: IC50

Give measured IC50 for every item shown.
1. COc1nc(N2CCSCC2)ccc1Nc1ncc(Cl)c(Nc2ccccc2NS(C)(=O)=O)n1
2. CN1CCN(c2ccc(Nc3ncc(Cl)c(Nc4ccccc4NS(=O)(=O)C4CC4)n3)cn2)CC1
3. COc1nc(N2CCNC(C)C2)ccc1Nc1ncc(Cl)c(Nc2ccccc2NS(C)(=O)=O)n1 (stereo not given)
4. C/C=C/C(=O)Nc1ccccc1Nc1nc(Nc2ccc(N3CCCCC3)nc2OC)ncc1Cl
5. CC(C)Oc1nc(N2CCN(C)CC2)ccc1Nc1ncc(Cl)c(Nc2ccccc2NS(C)(=O)=O)n1
6. CCN(CC)c1ccc(Nc2ncc(Cl)c(Nc3ccccc3NS(=O)(=O)C3CC3)n2)c(OC)n1
7. CCN(CC)c1ccc(Nc2ncc(Cl)c(Nc3ccccc3NS(C)(=O)=O)n2)c(OC)n1

0.85 µM
> 1 µM
> 1 µM
> 1 µM
0.88 µM
> 1 µM
> 1 µM

I have 8 compounds here; please give me IC50 for each one.
1. CS(=O)(=O)Nc1ccccc1Nc1nc(Nc2ccc(N3CCCC3)nc2)ncc1Cl
2. COc1nc(N2CC(O)C2)ccc1Nc1ncc(Cl)c(Nc2ccccc2NS(=O)(=O)C2CC2)n1
3. CN1CCN(c2ccc(Nc3ncc(Cl)c(Nc4ccccc4NS(C)(=O)=O)n3)cn2)CC1
4. COc1nc(N2CCCC2)ccc1Nc1ncc(Cl)c(Nc2ccccc2NS(=O)(=O)C2CC2)n1
5. CCN1CCN(c2ccc(Nc3ncc(Cl)c(Nc4ccccc4NS(C)(=O)=O)n3)c(OC)n2)CC1
6. COc1nc(N2CCN(CCO)CC2)ccc1Nc1ncc(Cl)c(Nc2ccccc2NS(=O)(=O)C2CC2)n1
7. COc1nc(N2CCCC2)ccc1Nc1ncc(Cl)c(Nc2ccccc2NS(C)(=O)=O)n1
8. COc1nc(N2CC(O)C2)ccc1Nc1ncc(Cl)c(Nc2ccccc2NS(C)(=O)=O)n1

> 1 µM
> 1 µM
0.85 µM
> 1 µM
> 1 µM
> 1 µM
0.71 µM
> 1 µM

---

System: NCI-H2228
Assay Notes: cells
Condition Info: Homo sapiens, NCI-H2228, 72 h
Description: Antiproliferative activity against human NCI-H2228 cells harboring EML4-ALK after 72 hrs by MTT assay
Kindly supply the reported pIC50 values for the records listed here.
Give bare numbers, as −log10 of the molar value.

// pIC50 lookup, key: CCN(CC)c1ccc(Nc2ncc(Cl)c(Nc3ccccc3NS(=O)(=O)C3CC3)n2)c(OC)n1 6.19

For each of the molecules below, note its pIC50.
1. CC(C)Oc1nc(N2CCCC2)ccc1Nc1ncc(Cl)c(Nc2ccccc2NS(C)(=O)=O)n1
2. CCN(CC)c1ccc(Nc2ncc(Cl)c(Nc3ccccc3NS(C)(=O)=O)n2)c(OC)n1
3. C/C=C/C(=O)Nc1ccccc1Nc1nc(Nc2ccc(N3CCCC3)nc2OC)ncc1Cl
4. COc1nc(N2CCCCC2)ccc1Nc1ncc(Cl)c(Nc2ccccc2NS(=O)(=O)C2CC2)n1
5. COc1nc(N2CCSCC2)ccc1Nc1ncc(Cl)c(Nc2ccccc2NS(C)(=O)=O)n1

1. 6.39
2. 6.44
3. 6.42
4. 6.57
5. 7.62

Answer for every listed entry: what is its pIC50? The entries follow.
1. C/C=C/C(=O)Nc1ccccc1Nc1nc(Nc2ccc(N3CCN(C)CC3)nc2OC)ncc1Cl
2. COc1nc(N2CCN(CCO)CC2)ccc1Nc1ncc(Cl)c(Nc2ccccc2NS(=O)(=O)C2CC2)n1
3. C/C=C/C(=O)Nc1ccccc1Nc1nc(Nc2ccc(N3CCCCC3)nc2OC)ncc1Cl

[6.57, 7.74, 6.44]

---

Test system: HCC78
Assay Notes: Antiproliferative activity against human HCC78 cells harboring SLC34A2-ROS1 after 72 hrs by MTT assay
Assay type: functional, cell-based
Condition Info: HCC78, 72 h
Recorded Metric: pIC50
Answers are plain numbers, as −log10 of the molar value.

Entry under review: CN1CCN(c2ccc(Nc3ncc(Cl)c(Nc4ccccc4NS(C)(=O)=O)n3)cn2)CC1 . Reported pIC50? 7.15

Field: pIC50. Fill in for each record below.
1. COc1nc(N2CCN(CCO)CC2)ccc1Nc1ncc(Cl)c(Nc2ccccc2NS(=O)(=O)C2CC2)n1
2. CC(C)Oc1nc(N2CCCC2)ccc1Nc1ncc(Cl)c(Nc2ccccc2NS(C)(=O)=O)n1
3. COc1nc(N2CCN(C)CC2)ccc1Nc1ncc(Cl)c(Nc2ccccc2NC(C)=O)n1

1: 6.89; 2: 7.05; 3: 6.85

---

Give measured pIC50 for each item. Keep answers brief.
Test system: NCI-H2228
Assay Notes: cells
Condition Info: Homo sapiens, NCI-H2228, 72 h
Answers are plain numbers, as −log10 of the molar value.

Use these answered entries as a reference point.
Form field - read-out: pIC50; system: NCI-H2228; submitted item: CN1CCN(c2ccc(Nc3ncc(Cl)c(Nc4ccccc4NS(C)(=O)=O)n3)cn2)CC1 7.10

Write down the reported pIC50 of CN1CCN(c2ccc(Nc3ncc(Cl)c(Nc4ccccc4NS(=O)(=O)C4CC4)n3)cn2)CC1 , test system: NCI-H2228. 6.85

Record COc1nc(N2CCOCC2)ccc1Nc1ncc(Cl)c(Nc2ccccc2NS(=O)(=O)C2CC2)n1 : what is its pIC50 with NCI-H2228? 7.05

Now turn to the next compound.
# query: pIC50 | item COc1nc(N2CCN(C)CC2)ccc1Nc1ncc(Cl)c(Nc2ccccc2NC(C)=O)n1 | system: NCI-H2228 6.80

Taken from ChEMBL document CHEMBL4265930.
